Conditions: in n-butyl acetate, 323.15 K
READOUT TYPE: solubility (mole fraction)

## Input # query: solubility (mole fraction) of entry `O=C(N[C@H](Cc1ccccc1)C(=O)O)OCC1c2ccccc2-c2ccccc21`
## Output 0.00536

====

Details: in acetonitrile, 283.15 K
READOUT TYPE: solubility (mole fraction)
Give bare numbers.

## Input For the molecule shown here, `O=C(N[C@H](Cc1ccccc1)C(=O)O)OCC1c2ccccc2-c2ccccc21` , give the reported solubility (mole fraction).
## Output 0.000619

====

Settings: in methanol, 283.15 K
READOUT TYPE: solubility (mole fraction)
One number for each entry.

## Input Value lookup for solubility (mole fraction); key = `O=C(N[C@H](Cc1ccccc1)C(=O)O)OCC1c2ccccc2-c2ccccc21`
## Output 0.00189

====

Conditions: in methyl acetate, 283.15 K
READOUT TYPE: solubility (mole fraction)

## Input Fill blank: measured solubility (mole fraction) of the molecule `O=C(N[C@H](Cc1ccccc1)C(=O)O)OCC1c2ccccc2-c2ccccc21` is ____.
## Output 0.00327

====

Conditions: in acetonitrile, 323.15 K
READOUT TYPE: solubility (mole fraction)
One number for each entry.

## Input What does the record list as solubility (mole fraction) for `O=C(N[C@H](Cc1ccccc1)C(=O)O)OCC1c2ccccc2-c2ccccc21` ?
## Output 0.00203

====

Details: in n-butyl acetate, 308.15 K
READOUT TYPE: solubility (mole fraction)
One number for each entry.

## Input Sample `O=C(N[C@H](Cc1ccccc1)C(=O)O)OCC1c2ccccc2-c2ccccc21` — what was its solubility (mole fraction)?
## Output 0.00352

====

Conditions: in n-butyl acetate, 288.15 K
READOUT TYPE: solubility (mole fraction)
Give bare numbers.

## Input Can you look up the measured solubility (mole fraction) of `O=C(N[C@H](Cc1ccccc1)C(=O)O)OCC1c2ccccc2-c2ccccc21` for me?
## Output 0.00227

====

Settings: in acetone, 283.15 K
READOUT TYPE: solubility (mole fraction)

## Input # get_value(readout='solubility (mole fraction)', item= `O=C(N[C@H](Cc1ccccc1)C(=O)O)OCC1c2ccccc2-c2ccccc21` )
## Output 0.00728

====

Details: in n-butanol, 323.15 K
READOUT TYPE: solubility (mole fraction)
Give bare numbers.

## Input Any idea what its solubility (mole fraction) is? The compound is `O=C(N[C@H](Cc1ccccc1)C(=O)O)OCC1c2ccccc2-c2ccccc21`
## Output 0.00511

====

Conditions: in isopropanol, 298.15 K
READOUT TYPE: solubility (mole fraction)
One number for each entry.

## Input Which solubility (mole fraction) value is on record for `O=C(N[C@H](Cc1ccccc1)C(=O)O)OCC1c2ccccc2-c2ccccc21` ?
## Output 0.00126

====

Details: in acetone, 303.15 K
READOUT TYPE: solubility (mole fraction)
One number for each entry.

## Input Entry under review: `O=C(N[C@H](Cc1ccccc1)C(=O)O)OCC1c2ccccc2-c2ccccc21` . Reported solubility (mole fraction)?
## Output 0.0109

====

Details: in methyl acetate, 288.15 K
READOUT TYPE: solubility (mole fraction)
Answers are plain numbers.

## Input Which value of solubility (mole fraction) has been reported for `O=C(N[C@H](Cc1ccccc1)C(=O)O)OCC1c2ccccc2-c2ccccc21` in the records?
## Output 0.00358
